Exercise: state measured inhibition for each of the compounds provided.
- measured_on: Beta-secretase 1 (Homo sapiens)
- Sequence (P56817 whole entry): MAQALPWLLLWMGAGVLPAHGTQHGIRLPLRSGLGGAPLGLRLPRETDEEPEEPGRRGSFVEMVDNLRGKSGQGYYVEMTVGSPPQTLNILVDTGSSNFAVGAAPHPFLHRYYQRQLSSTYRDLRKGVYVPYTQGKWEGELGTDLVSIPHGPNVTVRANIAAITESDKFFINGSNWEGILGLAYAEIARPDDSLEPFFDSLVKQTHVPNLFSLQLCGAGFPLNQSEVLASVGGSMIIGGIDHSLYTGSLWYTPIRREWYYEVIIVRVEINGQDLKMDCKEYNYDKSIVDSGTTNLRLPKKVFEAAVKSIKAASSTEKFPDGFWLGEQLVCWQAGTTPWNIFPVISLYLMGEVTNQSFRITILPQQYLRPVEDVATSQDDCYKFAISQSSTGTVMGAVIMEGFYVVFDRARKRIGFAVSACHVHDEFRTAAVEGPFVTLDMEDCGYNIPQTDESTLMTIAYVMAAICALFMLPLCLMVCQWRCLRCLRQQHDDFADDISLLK
- test_method_notes: Inhibition of human recombinant BACE1 at 2 uM
Answers are plain numbers, in %.

As a guide, the following entries are already answered.
CC(C)C[C@H](NC(=O)[C@@H](NC(=O)[C@@H](N)CNC(=O)c1ccccc1O)C(C)C)C(=O)N[C@@H](Cc1ccccc1)[C@@H](O)C(=O)Nc1cccc(C(=O)O)c1    75
CC(C)C[C@H](NC(=O)[C@@H](NC(=O)[C@@H](N)CNC(=O)c1nc(O)nc(O)c1F)C(C)C)C(=O)N[C@@H](Cc1ccccc1)[C@@H](O)C(=O)Nc1cccc(C(=O)O)c1    99
CC(C)C[C@H](NC(=O)[C@@H](NC(=O)[C@@H](N)CNC(=O)c1cc(O)ccc1O)C(C)C)C(=O)N[C@@H](Cc1ccccc1)[C@@H](O)C(=O)Nc1cccc(C(=O)O)c1    98

Would you mind listing inhibition for each of the following compounds?
1. CC(C)[C@H](NC(=O)[C@@H](N)CNC(=O)c1nn[nH]n1)C(=O)N[C@@H](CC1CCCCC1)C(=O)N[C@@H](Cc1ccccc1)[C@@H](O)C(=O)Nc1cccc(-c2nn[nH]n2)c1
2. CC(C)C[C@H](NC(=O)[C@@H](NC(=O)[C@@H](N)CNC(=O)c1cc(O)nc(O)n1)C(C)C)C(=O)N[C@@H](Cc1ccccc1)[C@@H](O)C(=O)Nc1cccc(C(=O)O)c1

Response:
1. 100
2. 90

Taken from ChEMBL document CHEMBL1145305.
